- TARGET OR TEST SYSTEM: T1, Stt3 (S. cerevisiae, UniProt P39007 1-718, N-glycan at Asn539)
- T1 sequence (looked up): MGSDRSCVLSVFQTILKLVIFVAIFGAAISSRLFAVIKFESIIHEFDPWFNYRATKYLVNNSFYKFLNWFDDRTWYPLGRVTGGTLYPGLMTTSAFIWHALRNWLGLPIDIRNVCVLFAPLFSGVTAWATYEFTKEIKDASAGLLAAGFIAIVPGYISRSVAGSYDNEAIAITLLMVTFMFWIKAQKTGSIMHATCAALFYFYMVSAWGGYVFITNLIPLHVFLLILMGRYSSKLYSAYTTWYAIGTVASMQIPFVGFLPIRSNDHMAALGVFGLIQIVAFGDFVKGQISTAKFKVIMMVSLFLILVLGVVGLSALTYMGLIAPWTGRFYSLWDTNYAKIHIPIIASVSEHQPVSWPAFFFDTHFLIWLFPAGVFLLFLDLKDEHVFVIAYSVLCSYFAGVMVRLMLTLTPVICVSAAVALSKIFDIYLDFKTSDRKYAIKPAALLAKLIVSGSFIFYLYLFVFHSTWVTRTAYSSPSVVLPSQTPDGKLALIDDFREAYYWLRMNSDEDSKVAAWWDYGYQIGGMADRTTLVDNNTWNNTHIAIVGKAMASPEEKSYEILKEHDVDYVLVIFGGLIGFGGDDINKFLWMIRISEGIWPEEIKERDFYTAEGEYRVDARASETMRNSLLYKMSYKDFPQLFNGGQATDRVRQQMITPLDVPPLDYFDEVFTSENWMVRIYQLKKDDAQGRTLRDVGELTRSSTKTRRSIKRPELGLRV
- EXPERIMENT NOTES: cryo-EM structure
ATTRIBUTE MEASURED: binding result

Just so you know, measured binding result for Ost2 (natural protein, S. cerevisiae, UniProt P46964 1-130, looked up) MAKAPKANTPKVTSTSSAVLTDFQETFKTSKRAYFAQIEKYPKLKLIDTFCFFLVLLGVIQCTFIILIRDNFPFNAFLAGFIICVGQFVLLMSLRLQLCNSFPGISKNRAFAEFIVASLILHFVCLHFIN came out at binds

Just so you know, measured binding result for Swp1 (natural protein, S. cerevisiae, UniProt Q02795 20-286, looked up) YVAQDVHVSFPSTAGKSRVMIGKVEPRIGIDETVPTTITVEDPNEVIQVNFAIESTNKPFQNTLLIGLPNKNLEMAFEPEIKDNGKLSMYKYRIDLAKLDAALLQEASRSPEPIKATLILASSTAKPKENLFREILQLNLNFDVDHSDSSLVDKFGIKPEIHHIFHAEPKRVAKPIAVIFVLIIFITILSLIVTWLNSCAAAFNNIPTGVTAVYFLGFIATIVGFEVIFARYYLGTSIFETLFSSLYLGAPGLLTSTKFLRSFGQTI came out at binds

Just so you know, measured binding result for MISDEQLNSLAITFGIVMMTLIVIYHAVDSTMSPKN (natural protein, S. cerevisiae) [Ost4-FLAG] came out at binds
